biological target: Dual specificity protein kinase CLK4 (Homo sapiens); experiment: Inhibition of GST-tagged human recombinant CLK4 expressed in Escherichia coli using RS peptide as substrate incubated for 30 mins in presence of [gamma-33 P] ATP by liquid scintillation counting analysis
Sequence (Q9HAZ1 whole entry): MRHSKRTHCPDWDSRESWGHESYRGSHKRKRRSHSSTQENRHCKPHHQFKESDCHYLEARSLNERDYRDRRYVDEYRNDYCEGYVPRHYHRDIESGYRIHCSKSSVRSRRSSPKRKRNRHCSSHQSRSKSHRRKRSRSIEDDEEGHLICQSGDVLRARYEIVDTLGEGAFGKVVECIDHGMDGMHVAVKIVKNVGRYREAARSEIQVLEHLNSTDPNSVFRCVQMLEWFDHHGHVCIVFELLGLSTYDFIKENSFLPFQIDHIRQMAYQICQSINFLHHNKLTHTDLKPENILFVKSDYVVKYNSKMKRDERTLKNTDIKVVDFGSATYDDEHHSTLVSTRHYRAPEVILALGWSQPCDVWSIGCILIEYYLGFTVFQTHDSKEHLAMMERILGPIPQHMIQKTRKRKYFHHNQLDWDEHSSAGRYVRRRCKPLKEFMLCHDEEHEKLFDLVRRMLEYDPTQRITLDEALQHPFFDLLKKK
endpointLabel: pIC50
Units for pIC50: none; it is -log10 of a concentration expressed in mol/L.

pIC50 for COc1ccc2c(c1)[nH]c1c3ccncc3cc(C#N)c21 is 7.48

pIC50 for COc1ccc2c(n1)[nH]c1c3ccncc3cc(C#N)c21 is 7.33

pIC50 for N#C/C(=C\c1cccnc1)c1c[nH]c2ncccc12 is 7.33

pIC50 for COc1ccc2c(c1)[nH]c1c3c(OC)cncc3cc(C#N)c21 is 7.52

pIC50 for COc1ccc2[nH]c3c(=O)[nH]c(-c4cccnc4)c(C#N)c3c2c1 is 7.68

pIC50 for COc1ccc2[nH]c3c4ccncc4cc(C#N)c3c2c1 is 7.24

----------
target: Dual specificity tyrosine-phosphorylation-regulated kinase 1A (Homo sapiens, UniProt Q13627); assay: Inhibition of GST-tagged human recombinant DYRK1A expressed in Escherichia coli using RS peptide as substrate incubated for 30 mins in presence of [gamma-33 P] ATP by liquid scintillation counting analysis
pIC50: −log10 of the molar value.
Label 1 for high-side pIC50 (at or above 6) and -1 for low-side pIC50 (below it).

Incoming: Decide: pIC50 of COc1ccc2c(c1)[nH]c1c3ccncc3cc(C#N)c21 >= 6?
Outgoing: 1

Incoming: Decide: pIC50 of Nc1nc2ccccc2c2cc3cnccc3cc12 >= 6?
Outgoing: -1

Incoming: Decide: pIC50 of COc1ccc2[nH]cc(/C(C#N)=C/c3cnccc3C)c2c1 >= 6?
Outgoing: -1

Incoming: Decide: pIC50 of N#Cc1cc2cnccc2c2[nH]c3ccccc3c12 >= 6?
Outgoing: 1

Incoming: Decide: pIC50 of COc1cccc2c1[nH]c1c3ccncc3cc(C(N)=O)c21 >= 6?
Outgoing: 1

----------
target: Glycogen synthase kinase-3 (Sus scrofa, UniProt B2LUN4+I6LNT8); experiment: Inhibition of porcine brain GSK3alpha/beta using GS-1 as substrate incubated for 30 mins in presence of [gamma-33 P] ATP by liquid scintillation counting analysis
For each entry below, report its IC50 value.

IC50 for COc1ccc2c(c1)[nH]c1c(C)nccc12 is > 10 µM

IC50 for COc1ccc2[nH]cc3c2c1C(C)NC(c1cccnc1)=C3C#N (stereo unspecified) is > 10 µM

IC50 for N#Cc1cc2cnccc2c2[nH]c3ccccc3c12 is 1 µM

IC50 for COc1ccc2[nH]cc(/C(C#N)=C/c3cnccc3C)c2c1 is > 10 µM

IC50 for N#C/C(=C\c1ccccn1)c1c[nH]c2ccccc12 is > 10 µM

IC50 for COc1ccc2c(c1)[nH]c1c3ccncc3cc(C#N)c21 is 0.68 µM

----------
target: Dual specificity protein kinase CLK4 (Homo sapiens); assay: Inhibition of GST-tagged human recombinant CLK4 expressed in Escherichia coli using RS peptide as substrate incubated for 30 mins in presence of [gamma-33 P] ATP by liquid scintillation counting analysis
endpointLabel: IC50
Numeric answer plus unit only.

IC50 for COc1cccc2c1[nH]c1c3ccncc3cc(C(N)=O)c21 is 110 nM

IC50 for COc1ccc2c(c1)[nH]c1c3ccncc3cc(CNC(C)=O)c21 is 690 nM

IC50 for COc1ccc2[nH]cc(-c3cc4cnccc4cc3NC(C)=O)c2c1 is 22 nM

IC50 for COc1ccc2c(c1)[nH]c1c3ccncc3cc(CN)c21 is 270 nM

IC50 for N#Cc1cc2cnccc2c2[nH]c3ncccc3c12 is 130 nM
